# TESTED TARGET: CBL-B (Homo sapiens, UniProt Q13191)
# Construct: GST
# Sequence (Q13191 whole entry): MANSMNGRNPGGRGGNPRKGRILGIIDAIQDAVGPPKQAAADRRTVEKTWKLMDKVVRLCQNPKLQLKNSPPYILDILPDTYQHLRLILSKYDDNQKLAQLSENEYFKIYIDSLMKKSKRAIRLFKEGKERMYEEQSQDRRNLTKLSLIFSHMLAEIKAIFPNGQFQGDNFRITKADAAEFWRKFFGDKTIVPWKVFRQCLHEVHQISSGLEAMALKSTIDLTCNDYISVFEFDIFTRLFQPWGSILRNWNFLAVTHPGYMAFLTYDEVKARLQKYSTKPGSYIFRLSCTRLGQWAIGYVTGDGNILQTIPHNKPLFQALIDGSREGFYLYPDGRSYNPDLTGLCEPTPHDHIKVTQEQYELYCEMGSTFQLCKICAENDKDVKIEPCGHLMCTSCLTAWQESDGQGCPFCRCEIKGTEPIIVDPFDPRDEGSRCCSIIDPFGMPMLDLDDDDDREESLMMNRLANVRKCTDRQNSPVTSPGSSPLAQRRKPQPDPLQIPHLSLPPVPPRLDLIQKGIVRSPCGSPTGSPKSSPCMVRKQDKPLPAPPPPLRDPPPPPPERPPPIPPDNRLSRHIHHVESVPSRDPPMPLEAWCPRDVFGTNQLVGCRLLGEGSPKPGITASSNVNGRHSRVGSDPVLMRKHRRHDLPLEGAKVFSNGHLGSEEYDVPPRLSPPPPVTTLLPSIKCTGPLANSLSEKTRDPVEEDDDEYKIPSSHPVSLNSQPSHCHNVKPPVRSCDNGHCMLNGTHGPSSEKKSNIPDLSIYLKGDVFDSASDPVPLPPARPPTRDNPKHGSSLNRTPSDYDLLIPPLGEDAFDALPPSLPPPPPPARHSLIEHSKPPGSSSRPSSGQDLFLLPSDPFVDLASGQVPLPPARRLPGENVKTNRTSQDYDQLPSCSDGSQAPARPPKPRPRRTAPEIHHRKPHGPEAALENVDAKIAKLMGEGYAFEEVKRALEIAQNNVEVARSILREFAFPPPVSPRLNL
# RUN DESCRIPTION: CBL-B TR-FRET IC50 screening (E1/E2 ubiquitination, Biotin-Ubiquitin, Anti GST-Tb donor / Streptavidin-d2 acceptor)
# Assay type: biochemical
# EXPERIMENTAL PARAMETERS: CBL-B 10 nM final; 11-point titration from 100 uM; binned A-F; read-out: CBL-B TR-FRET activity IC50
TEST READOUT: IC50

Test item Cn1cnnc1CC1CCc2c1cccc2-n1cc2c(C(F)(F)F)cccn2c1=O (stereo not shown) ; CBL-B (Homo sapiens, UniProt Q13191); reported IC50 was > 10000 nM

Field IC50 (CBL-B (Homo sapiens, UniProt Q13191)), entry Cn1cnnc1C[C@H]1CCc2c1cccc2-n1cc2c(C(F)(F)F)cccn2c1=O (single isomer, unassigned) : > 10000 nM

Let me check: `C[C@H]1CCCN(Cc2cc(C(F)(F)F)c3cn(-c4cccc([C@H](CC5CC5)c5nncn5C)c4)c(=O)n3c2)C1` , system CBL-B (Homo sapiens, UniProt Q13191), measured IC50 is > 10000 nM

Test item COC1(C[C@@H](c2cccc(-n3cc4c(C(F)(F)F)cc(CN5CCC[C@H](C)C5)cn4c3=O)c2)c2nncn2C)CC1 (single isomer, unassigned) ; CBL-B (Homo sapiens, UniProt Q13191); reported IC50 was 1000 to 3000 nM

Item C[C@@H]1CN([C@@H](C)c2cc(C(F)(F)F)c3cn(-c4cccc([C@@H](c5nncn5C)C5CCC5)c4)c(=O)n3c2)CCO1 (single isomer, unassigned) ; assay system CBL-B (Homo sapiens, UniProt Q13191); IC50 reported as 301 to 1000 nM

Measured IC50 (CBL-B (Homo sapiens, UniProt Q13191)), entry `Cn1cnnc1CC1(c2cccc(-n3cc4c(C(F)(F)F)cc(CN5CC(O)C5)cn4c3=O)c2)COC1` : 100 to 300 nM

// molecule `Cn1cnnc1[C@@H](c1cccc(-n2cc3c(C(F)(F)F)cc(CN4CCN(C=O)CC4)cn3c2=O)c1)C1CCC1` , assay CBL-B (Homo sapiens, UniProt Q13191), IC50 value: 1000 to 3000 nM

Tested on CBL-B (Homo sapiens, UniProt Q13191): `C[C@H]1CCCN(Cc2cc(C(F)(F)F)c3cn(-c4cccc(C5(c6nncn6C)CC6(CCC6)C5)c4)c(=O)n3c2)C1` . Observed IC50: < 100 nM

Item: C[C@@H]1CN([C@H](C)c2cc(C(F)(F)F)c3cn(-c4cccc([C@H](c5nncn5C)C5CCC5)c4)c(=O)n3c2)CCO1 (single isomer, unassigned) | System: CBL-B (Homo sapiens, UniProt Q13191) | IC50: < 100 nM

Record CN1CCCCC1c1cc(C(F)(F)F)c2cn(-c3cccc(C4(Cc5nncn5C)COC4)c3)c(=O)n2c1 (single isomer, unassigned) [Compound 186] ; system CBL-B (Homo sapiens, UniProt Q13191); IC50 = 100 to 300 nM

// returns IC50 for `COCCN(C)Cc1cc(C(F)(F)F)c2cn(-c3cccc(C4(Cc5nncn5C)COC4)c3)c(=O)n2c1` with CBL-B (Homo sapiens, UniProt Q13191); value = 301 to 1000 nM

CBL-B (Homo sapiens, UniProt Q13191) assay, molecule `C[C@@H]1CN(Cc2cc(C(F)(F)F)c3cn(-c4cccc([C@H](c5nncn5C)C5CCC5)c4)c(=O)n3c2)CCO1` , recorded IC50 = < 100 nM

IC50 for CBL-B (Homo sapiens, UniProt Q13191) with input `Cn1cnnc1COc1cccc(-n2cc3c(C(F)(F)F)cc(Br)cn3c2=O)c1` equals > 10000 nM

Simply: `CN1CCC=C(c2cc(C(F)(F)F)c3cn(-c4cccc(C5(Cc6nncn6C)COC5)c4)c(=O)n3c2)C1` , CBL-B (Homo sapiens, UniProt Q13191), IC50 = 100 to 300 nM

Known value: CBL-B (Homo sapiens, UniProt Q13191) IC50 of the molecule `Cn1cnnc1CC1(c2cccc(-n3cc4c(C(F)(F)F)cc(CN5CCC[C@H](O)C5)cn4c3=O)c2)COC1` equals < 100 nM

IC50 value, target or system CBL-B (Homo sapiens, UniProt Q13191), for `Cn1cnnc1C(F)(F)[C@@](C)(F)c1cccc(-n2cc3c(C(F)(F)F)cc(CN4CCC(F)(F)C4)cn3c2=O)c1` : 301 to 1000 nM

Entry CN(C)C1CCC(c2cc(C(F)(F)F)c3cn(-c4cccc(C5(Cc6nncn6C)COC5)c4)c(=O)n3c2)CC1 (stereo not shown) under CBL-B (Homo sapiens, UniProt Q13191) had IC50 of 100 to 300 nM

Tested on CBL-B (Homo sapiens, UniProt Q13191), the item C[C@@H]1CN([C@H](C)c2cc(C(F)(F)F)c3cn(-c4cccc([C@@H](c5nncn5C)C5CCC5)c4)c(=O)n3c2)CCO1 (single isomer, unassigned) showed IC50 equal to 3000 to 10000 nM

Record `CN(C)C(=O)C1CCN(Cc2cc(C(F)(F)F)c3cn(-c4cccc([C@H](c5nncn5C)C5CCC5)c4)c(=O)n3c2)CC1` ; system CBL-B (Homo sapiens, UniProt Q13191); IC50 = < 100 nM

IC50 on CBL-B (Homo sapiens, UniProt Q13191) for `Cn1cnnc1[C@@H](c1cccc(-n2cc3c(C(F)(F)F)cc(CN4CC5(CCC5)C4)cn3c2=O)c1)C1CCC1` is < 100 nM

Tested on CBL-B (Homo sapiens, UniProt Q13191): `C[C@H](c1cc(C(F)(F)F)c2cn(-c3cccc(C4([C@@H](F)c5nncn5C)COC4)c3)c(=O)n2c1)N1CCC2(CC2)C1` . Observed IC50: < 100 nM

Value (IC50, CBL-B (Homo sapiens, UniProt Q13191)) for record `Cn1cnnc1[C@@H](c1cccc(-n2cc3c(C(F)(F)F)cc(CN4CCC(=O)N4)cn3c2=O)c1)C1CCC1` = < 100 nM

Lab entry: CBL-B (Homo sapiens, UniProt Q13191) assay, molecule `CNC(=O)c1cc(C(F)(F)F)c2cn(-c3cccc(C4(Cc5nncn5C)COC4)c3)c(=O)n2c1` , IC50 = 1000 to 3000 nM

Readout IC50 for C[C@@H]1CN(Cc2cc(C(F)(F)F)c3cn(-c4cccc([C@]5(c6nncn6C)C[C@@H](C)C5)c4)c(=O)n3c2)CCO1 (single isomer, unassigned) , test system CBL-B (Homo sapiens, UniProt Q13191), was < 100 nM

Response field IC50 (CBL-B (Homo sapiens, UniProt Q13191)) for item `Cn1cnnc1[C@H](c1cccc(-n2cc3c(C(F)(F)F)cc(CN4CCC(C)(F)CC4)cn3c2=O)c1)C1CCC1` : 1000 to 3000 nM

Data provenance: patent US20240228482A1
